assay.comment: in vitro
condition.details: rat, gh3-tre-luc cells, AC50 (uM) modified / 1000, Tox21_110001=Tox21_112600; viability, 1 nM T3 present, 24 h
quantity.measured: CC50 at 24 h

Query :: Need CC50 at 24 h of CCCCCCC(=O)O[C@H]1CC[C@H]2[C@@H]3CC[C@H]4CC(=O)C=C(C)[C@]4(C)[C@H]3CC[C@]12C [Methenolone enanthate] , thanks.
Result :: > 50 µM

----------
assay.comment: in vitro
condition.details: rat, gh3-tre-luc cells, AC50 (uM) modified / 1000
Counter-ions that a name gives are not always drawn.
quantity.measured: CC50 at 24 h

Illustrative cases are given below, each with its answer.
>>> recorded_result("NNC(=O)CP(=O)(c1ccccc1)c1ccccc1 [Fosenazide]")
"> 50 µM"
>>> recorded_result("C[C@@H](O)[C@H]1C(=O)N2C(C(=O)O)=C([C@H]3CCCO3)S[C@H]12 [Fropenem]")
"> 50 µM"
>>> recorded_result("Cc1ccc2c(c1)OCC(=O)CO2 [7-Methyl-2H-1,5-benzodioxepin-3(4H)-one]")
"> 90 µM"
>>> recorded_result("O=C(CCCCCCC(=O)Nc1ccccc1)NO [Suberoylanilide hydroxamic acid]")
"2.15 µM"
>>> recorded_result("CCCCCCCCCCCCSCCOCCOCCOCCOCCOCCOCCOCCOCCOCCO [Laureth 10s]")
"> 50 µM"

Query :: Need CC50 at 24 h of O=P(O)(O)C(O)(Cn1ccnc1)P(=O)(O)O [Zoledronate] , thanks.
Result :: > 50 µM

Query :: Now the same for CC(C)CCC(=O)CCC(C)C [2,8-Dimethylnonan-5-one]
Result :: > 90 µM

Query :: Now the same for O=S1(=O)OC(c2cc(Br)c(O)c(Br)c2)(c2cc(Br)c(O)c(Br)c2)c2ccccc21 [Bromophenol blue]
Result :: 63.9 µM

Query :: Now the same for CC(=O)Oc1ccccc1C(N)=O [Acetylsalicylamide]
Result :: > 50 µM

Query :: Now the same for CC(C)=CCO [3-Methyl-2-buten-1-ol]
Result :: > 90 µM

Query :: Now the same for C#CCN1C(=O)COc2cc(F)c(N3C(=O)C4=C(CCCC4)C3=O)cc21 [Flumioxazin]
Result :: > 90 µM

Query :: Now the same for CCCCCCC[N+](CC)(CC)CCCCc1ccc(Cl)cc1 [Clofilium tosylate]
Result :: > 20 µM

----------
assay.comment: in vitro
condition.details: rat, gh3-tre-luc cells, AC50 (uM) modified / 1000
quantity.measured: CC50 at 24 h

>>> recorded_result("CCCCC(=O)OCC(=O)[C@]1(O)Cc2c(O)c3c(c(O)c2[C@@H](O[C@H]2C[C@H](NC(=O)C(F)(F)F)[C@H](O)[C@H](C)O2)C1)C(=O)c1c(OC)cccc1C3=O")
"8.11 µM"

Query :: Need CC50 at 24 h of Cc1nnc(C(=O)NC(C)(C)c2nc(C(=O)NCc3ccc(F)cc3)c(O)c(=O)n2C)o1 , thanks.
Result :: > 50 µM

Query :: Now the same for NS(=O)(=O)c1cc2c(cc1C(F)(F)F)NC(Cc1ccccc1)NS2(=O)=O (stereo not shown) [Bendroflumethiazide]
Result :: > 20 µM

----------
Below, each entry is listed with its recorded CC50 at 24 h.
assay.comment: in vitro
condition.details: rat, gh3-tre-luc cells, AC50 (uM) modified / 1000
Where a name gives a salt, the structure may show the parent alone.

Illustrative cases are given below, each with its answer.
>>> recorded_result("CCCCc1ccc(Cl)cc1 [4-Butylchlorobenzene]")
"> 90 µM"
>>> recorded_result("CO[Si](OC)(OC)OC [Tetramethyl orthosilicate]")
"81.5 µM"
>>> recorded_result("CC(C)c1ccccc1O [2-Isopropylphenol]")
"> 90 µM"
>>> recorded_result("N=C(N)NC(=O)Cc1c(Cl)cccc1Cl [Guanfacine hydrochloride]")
"31.7 µM"
>>> recorded_result("CC(O)(P(=O)(O)O)P(=O)(O)O [Etidronic acid]")
"> 90 µM"

Query :: Need CC50 at 24 h of CCN(CC)CCOCCOC(=O)C1(c2ccccc2)CCCC1 [Carbetapentane] , thanks.
Result :: > 50 µM

Query :: Now the same for CC(C)(C#N)Nc1nc(Cl)nc(NC2CC2)n1 [Procyazine]
Result :: > 90 µM

Query :: Now the same for CC(C)(C)C(=O)C1C(=O)c2ccccc2C1=O [Pindone]
Result :: 60.9 µM

Query :: Now the same for CC(C)[N+](C)(CCOC(=O)C1c2ccccc2Oc2ccccc21)C(C)C [Propantheline bromide]
Result :: > 90 µM

Query :: Now the same for CCCCOC(=O)CCC(C)=O [Butyl 4-oxopentanoate]
Result :: > 90 µM

Query :: Now the same for C=C[C@H]1C[N@@]2CC[C@H]1C[C@H]2[C@H](O)c1ccnc2ccc(OC)cc12 [Quinine hemisulfate salt monohydrate]
Result :: > 50 µM

Query :: Now the same for O=C1C(O)=C(O)C(=O)C(O)=C1O [Tetroquinone]
Result :: > 50 µM

Query :: Now the same for Nc1c(Br)cc(Br)cc1CN[C@H]1CC[C@H](O)CC1 [Ambroxolhydrochloride]
Result :: > 50 µM

Query :: Now the same for CCCC(=O)C(=O)O [2-Oxopentanoic acid]
Result :: > 90 µM

Query :: Now the same for O=Cc1ccccc1C=O [1,2-Benzenedicarboxaldehyde]
Result :: 4.89 µM

Query :: Now the same for COC(=O)[C@H]1CC[C@H](C(=O)OC)CC1
Result :: > 90 µM

Query :: Now the same for O=C(O)CCCCCCC(=O)O [Octanedioic acid]
Result :: > 90 µM

Query :: Now the same for O=C1c2ccccc2CN2C(=O)c3ccccc3CN12 [Diftalone]
Result :: > 50 µM

Query :: Now the same for CC(C)CC(C)O (stereo not shown) [4-Methyl-2-pentanol]
Result :: > 90 µM

Query :: Now the same for Cc1cc(Br)ccc1NC(=O)CCl
Result :: 22.1 µM

Query :: Now the same for NC(=S)NS(=O)(=O)c1ccc(N)cc1 [Sulfathiourea]
Result :: > 50 µM

Query :: Now the same for O=P(O)(O)C(Sc1ccc(Cl)cc1)P(=O)(O)O [Tiludronate disodium]
Result :: > 50 µM
